assayed.target: Kappa-type opioid receptor (Cavia porcellus) (UniProt P41144)
Sequence (P41144 whole entry): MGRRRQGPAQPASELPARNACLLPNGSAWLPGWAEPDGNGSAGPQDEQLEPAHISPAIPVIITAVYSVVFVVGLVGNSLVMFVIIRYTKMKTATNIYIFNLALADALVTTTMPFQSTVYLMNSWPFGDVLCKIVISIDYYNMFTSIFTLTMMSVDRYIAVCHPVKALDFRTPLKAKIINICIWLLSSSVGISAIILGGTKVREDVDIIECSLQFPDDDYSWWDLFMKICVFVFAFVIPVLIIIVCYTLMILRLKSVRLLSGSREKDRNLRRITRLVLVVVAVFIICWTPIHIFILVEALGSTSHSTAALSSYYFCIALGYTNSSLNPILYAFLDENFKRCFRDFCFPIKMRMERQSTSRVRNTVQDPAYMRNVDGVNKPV
method.notes: Agonist activity against guinea pig ileum kappa receptor relative to ethylketazocine
Format: functional, tissue-based
parameter.measured: IC50 ratio
# print the numeric value only

Below, 4 compounds whose answers are already recorded.
compound	parameter.measured	quantitative.readout
CC(C)Cc1[nH]c2c(c1-c1ccccc1)C[C@@]1(O)C3Cc4ccc(O)c5c4C1(CCN3CC1CC1)[C@H]2O5 (stereo partly drawn)	IC50 ratio	1.3
Cc1c(CC(C)C)[nH]c2c1C[C@@]1(O)C3Cc4ccc(O)c5c4C1(CCN3CC1CC1)[C@H]2O5 (stereo partly drawn)	IC50 ratio	380
CCCCc1c(CC(C)C)[nH]c2c1C[C@@]1(O)C3Cc4ccc(O)c5c4C1(CCN3CC1CC1)[C@H]2O5 (stereo partly drawn)	IC50 ratio	0.99
Cc1[nH]c2c(c1Cc1ccccc1)C[C@@]1(O)C3Cc4ccc(O)c5c4C1(CCN3CC1CC1)[C@H]2O5 (stereo partly drawn)	IC50 ratio	1.3

Incoming: Using the record for Cc1[nH]c2c(c1-c1ccccc1)C[C@@]1(O)C3Cc4ccc(O)c5c4C1(CCN3CC1CC1)[C@H]2O5 (stereo partly drawn) , state its measured IC50 ratio.
Outgoing: 0.98

Incoming: Please report IC50 ratio for the following compound: Cc1[nH]c2c(c1C)C[C@@]1(O)C3Cc4ccc(O)c5c4C1(CCN3CC1CC1)[C@H]2O5 (stereo partly drawn)
Outgoing: 1.4

Incoming: Give the value of IC50 ratio reported for the following: Oc1ccc2c3c1O[C@H]1c4[nH]cc(-c5ccccc5)c4C[C@@]4(O)C(C2)N(CC2CC2)CCC314 (stereo partly drawn)
Outgoing: 2.1

Incoming: Tell me measured IC50 ratio for CCCCc1c(C)[nH]c2c1C[C@@]1(O)C3Cc4ccc(O)c5c4C1(CCN3CC1CC1)[C@H]2O5 (stereo partly drawn) please.
Outgoing: 0.95

###

assayed.target: Mu-type opioid receptor (Cavia porcellus)
method.notes: Agonist activity against guinea pig ileum Opioid receptor mu 1
Format: functional, tissue-based
parameter.measured: IC50 ratio
Give a plain numeric answer without units written out.

Incoming: Fill in reported IC50 ratio for this entry: CCCCc1c(C)[nH]c2c1C[C@@]1(O)C3Cc4ccc(O)c5c4C1(CCN3CC1CC1)[C@H]2O5 (stereo partly drawn)
Outgoing: 2.1

Incoming: Consider the molecule Cc1[nH]c2c(c1-c1ccccc1)C[C@@]1(O)C3Cc4ccc(O)c5c4C1(CCN3CC1CC1)[C@H]2O5 (stereo partly drawn) and give its recorded IC50 ratio.
Outgoing: 0.9

Incoming: Indicate its recorded IC50 ratio; the molecule in question is Cc1[nH]c2c(c1Cc1ccccc1)C[C@@]1(O)C3Cc4ccc(O)c5c4C1(CCN3CC1CC1)[C@H]2O5 (stereo partly drawn)
Outgoing: 1.3

Incoming: Please report the measured IC50 ratio for Cc1c(CC(C)C)[nH]c2c1C[C@@]1(O)C3Cc4ccc(O)c5c4C1(CCN3CC1CC1)[C@H]2O5 (stereo partly drawn)
Outgoing: 380

Incoming: Provide measured IC50 ratio value, entry: Oc1ccc2c3c1O[C@H]1c4[nH]cc(-c5ccccc5)c4C[C@@]4(O)C(C2)N(CC2CC2)CCC314 (stereo partly drawn)
Outgoing: 2.3

Incoming: Input Cc1[nH]c2c(c1C)C[C@@]1(O)C3Cc4ccc(O)c5c4C1(CCN3CC1CC1)[C@H]2O5 (stereo partly drawn) , output reported IC50 ratio.
Outgoing: 1.5

Incoming: Give me measured IC50 ratio, please, for this molecule: CC(C)Cc1[nH]c2c(c1-c1ccccc1)C[C@@]1(O)C3Cc4ccc(O)c5c4C1(CCN3CC1CC1)[C@H]2O5 (stereo partly drawn)
Outgoing: 4.1

Incoming: Determine its reported IC50 ratio: CCCCc1c(CC(C)C)[nH]c2c1C[C@@]1(O)C3Cc4ccc(O)c5c4C1(CCN3CC1CC1)[C@H]2O5 (stereo partly drawn)
Outgoing: 0.76
